- System: NIH3T3
- assay: Cytotoxic Profiling of Annotated Libraries Using Quantitative High-Throughput Screening (AID 1296008); note: % is set by controls: 0 for no effect and ±100 for the full control effect; nearly all actives have a fitted effect of over 60% in size
- measurement_context: Five cell lines viability, CellTiter-Glo ATP luminescence, 48-72 h; stronger effect = lower value
Results filed as inconclusive are left out.
Attribute: max response
reported_metric: max response (%)

- CC(=O)c1ccc(S(=O)(=O)NC(=O)NC2CCCCC2)cc1: -3.55
- C=C1C(=O)OC(CCCCCCCC)C1C(=O)O (stereo unspecified): 2.38
- CC=CCC=CCCC(=O)[C@H]1O[C@@H]1C(N)=O: 1.26
- O=C1NC(=O)C(c2ccccc2)(c2ccccc2)N1: -3.65
- O=C1NC(=O)C(=Cc2ccc3nccnc3c2)S1: -9.21
- CC1(C)CCC[C@@]2(C)[C@@H]1CC[C@@]1(C)OC(=O)C[C@H]21: 1.1
- Cc1cc(OCCCc2c(C(=O)O)n(Cc3cccnc3)c3c(-c4c(COc5ccc(N6CCN([S+](C)(=O)[O-])CC6)cc5)nn(C)c4C)cccc23)cc(C)c1Cl: -3.92
- CC(=O)O[C@]1(C(C)=O)CC[C@@H]2[C@@H]3C[C@H](C)C4=CC(=O)CC[C@]4(C)[C@H]3CC[C@@]21C: -6.3
- O=C(Nc1c(Cl)cncc1Cl)c1ccc(OC(F)F)c(OCC2CC2)c1: -4.15
- C[C@]12CCC3c4ccc(O)cc4CCC3C1CCC2=O (stereo partly specified): -7.72
- N#CC1(c2ccc(NC(=O)c3cccnc3NCc3ccncc3)cc2)CCCC1: -15.9
- CC[C@@H]1C=C(C)C[C@H](C)C[C@H](OC)[C@H]2O[C@@](O)(C(=O)C(=O)N3CCCC[C@@H]3C(=O)O[C@H](C(C)=C[C@@H]3CC[C@H](Cl)[C@H](OC)C3)[C@H](C)[C@@H](O)CC1=O)[C@H](C)C[C@H]2OC: -7.01
- CC(C)(C)OC(=O)N[C@H]1CCCCCC=C[C@@H]2C[C@@]2(C(=O)NS(=O)(=O)C2CC2)NC(=O)[C@@H]2C[C@@H](OC(=O)N3Cc4cccc(F)c4C3)CN2C1=O: -0.939
- O=C(O)c1c(Cl)c(Cl)c(Cl)c(Cl)c1-c1c2cc(I)c(=O)c(I)c-2oc2c(I)c(O)c(I)cc12: -19.3
- C[C@H](NC(=O)c1sccc1OCc1ccc(Cl)cc1)c1ccccc1: -27.6
- COc1ccc2c3c1OC1C[C@@H](O)C=C[C@@]31CCN(C)C2 (stereo partly specified): 1.03
- O=C(CCc1ccc(O)cc1)c1c(O)cc(O)cc1O[C@@H]1O[C@H](CO)[C@H](O)[C@H](O)[C@H]1O: -7.96
- Cc1ccc(Nc2cc(-c3cccc(N4C(=O)c5ccccc5C4=O)c3)ncn2)cc1NS(C)(=O)=O: -7.13
- O=c1cc(CN2CCOCC2)occ1OCCCCCSc1ccnc2cc(C(F)(F)F)ccc12: 0.796
- c1ccc2c(-c3cnn4cc(-c5ccc(N6CCNCC6)cc5)cnc34)ccnc2c1: -102
- Nc1ncnc2c1ncn2[C@@H]1O[C@@H](CO)[C@H](O)[C@H]1O: -24.9

----------
- assay: qHTS of pediatric cancer cell lines to identify multiple opportunities for drug repurposing: Primary screen for LAN-5 cells (AID 1347100)
- measurement_context: LAN-5 neuroblastoma viability, CellTiter-Glo luminescence, 48 h; series mostly up to 46 µM
Records with an inconclusive call do not appear. Activity calls are given as the source filed them. Calls come from the whole dose curve; as a rule, active = well fitted cell-killing curve with a large enough effect; inconclusive = small, poorly fitted or top-dose-only effect; inactive = no such curve, though single readings can be large or run the other way.
Outcomes: active, inactive

- COC(=O)C1=CO[C@@H](O)[C@@H]2C(CO)=CC[C@@H]12: active
- c1cc(-c2sc(-c3ccncc3)c(-c3ccncc3)c2-c2ccncc2)ccn1: inactive
- Cn1cc(C=C2C(=O)Nc3cccnc32)c2ccccc21: inactive
- Cc1cnc(C(=O)O)c[n+]1[O-]: inactive
- CCN(CC)CCOC(=O)c1ccc(N)cc1: inactive
- CCC(=O)O[C@]1(C(=O)CO)CC[C@H]2[C@@H]3CCC4=CC(=O)CC[C@]4(C)[C@@H]3CC[C@@]21C: inactive
- COc1ccc(-c2coc3cc(O)ccc3c2=O)cc1: inactive
- C[C@]12CC[C@@H]3c4ccc(O)cc4C[C@@H](CCCCCCCCCS(=O)CCCC(F)(F)C(F)(F)F)[C@H]3[C@H]1CC[C@H]2O (stereo not given in full): inactive
- COC(=O)[C@@H]1[C@H]2C[C@H]3c4[nH]c5ccccc5c4CCN3C[C@@H]2CC[C@@H]1O: inactive
- CC1(C)S[C@H]2[C@H](NC(=O)[C@@H](N)c3ccc(O)cc3)C(=O)N2[C@@H]1C(=O)O: active
